# System: TK-10
# experiment: NCI tumour cell line growth inhibition, 48 h
The source made the active and inactive calls. Cut-off read from the data, not from the text of the source: active = GI50 up to about 1.1 µM and inactive = higher.
Could you please pick one outcome from this set? Y (active), N (inactive)

Known results for molecules:
molecule	classification
COc1nc(=O)cc(N)n1C1OC(CO)C(O)C1O (centres undefined)	N
O=C1C(Cl)=C(N2CCC[C@H]2CO)C(=O)c2c(O)ccc(O)c21	N
O=[N+]([O-])c1ccc(N=P(c2ccccc2)(c2ccccc2)c2ccccc2)n2nnnc12	N
CC(C)(C)c1cc(C2COC(c3cc(C(C)(C)C)c(O)c(C(C)(C)C)c3)CO2)cc(C(C)(C)C)c1O (centres undefined)	N
CCCCOC(=O)NC(=O)c1cn(CCCOC(=O)CCCCCCCCC(=O)OCCCn2cc(C(=O)NC(=O)OCCCC)c(=O)[nH]c2=O)c(=O)[nH]c1=O	N

Problem: Test call for this molecule, please: `Cc1cc(S(=O)(=O)Nc2nnc3c4ccccc4cnn23)c(S)cc1Cl`
Solution: N

Problem: Test call for this molecule, please: `N#Cc1c(N2CCN(c3ccc([N+](=O)[O-])cc3)CC2)[n+]([O-])c2ccc(Cl)cc2[n+]1[O-]`
Solution: N

Problem: Test call for this molecule, please: COC(=O)C1=C(O)C(C(=O)OC)[C@]2(O)[C@@H](C(=O)OC)[C@H]1C[C@@H](c1ccccc1)[C@@H]2C(=O)OC (some centres undefined)
Solution: N

Problem: Test call for this molecule, please: `Cc1ccnc2nc(-c3cccc4ccccc34)cc(O)c12`
Solution: Y
